Property: Efficacy; scope: individual compounds
System: Puccinia triticina
testMethodNotes: In vivo preventive test on Puccinia triticina (wheat)
appliedConditions: dose 500 ppm of active ingredient, evaluated 8 days after inoculation
Express your answer in %, writing the number without its unit.

Below are worked cases with known answers.
{"columns": ["compound", "studySystem", "val"],
 "data": [
  ["CN(CCc1ccc(F)cc1)C(=O)c1c(C(F)F)nn(C)c1Cl", "Puccinia triticina", 80],
  ["Cn1nc(C(F)F)c(C(=O)N(C[Si](C)(C)c2ccc3ccccc3c2)C2CC2)c1F", "Puccinia triticina", 95],
  ["CC(Cc1c(F)cccc1F)N(C(=O)c1c(C(F)F)nn(C)c1F)C1CC1 (centres unmarked)", "Puccinia triticina", 90],
  ["CC(Cc1cccc(Oc2ccccc2)c1)NC(=O)c1c(C(F)F)nn(C)c1Cl (centres unmarked)", "Puccinia triticina", 70]
]}

Could you now look at the following compound, please?
(Q) Please give the measured Efficacy for this compound: CC(Cc1ncc(C(F)(F)F)cc1Cl)N(C(=O)c1cn(C)nc1C(F)F)C1CC1 (centres unmarked) [compound CMP4, reference compound]
(A) 11

====

testMethodNotes: logP by HPLC on reversed-phase column (C 18), EEC Directive 79/831 Annex V.A8
Type: physicochemical
Consider the following molecules and their measured logP readings.
No unit in the answer, please; the number alone is enough.

Known results for molecules:
{"columns": ["molecule", "val"],
 "data": [
  ["Cn1nc(C(F)F)c(C(=O)N(C[Si](C)(C)c2cc(Cl)cc(Cl)c2)C2CC2)c1F [Example 242]", 4.78],
  ["Cn1nc(C(F)F)c(C(=O)NCCc2ccccc2Oc2ccccc2)c1F [Example 140]", 3.48],
  ["Cn1nc(C(F)F)c(C(=O)NC[Si](C)(C)c2ccc(Cl)cc2Cl)c1F [Example 240]", 4.06],
  ["Cn1nc(C(F)F)c(C(=O)NCCc2c(F)c(F)nc(F)c2F)c1Cl [Example 209]", 2.60],
  ["CC(Cc1ccco1)NC(=O)c1c(C(F)F)nn(C)c1F (stereo not drawn) [Example 173]", 2.20],
  ["Cn1nc(C(F)F)c(C(=O)NCC(C)(C)c2ccc(Oc3ccccc3)cc2)c1Cl [Example 158]", 4.21]
]}

(Q) Please give the measured logP for this molecule: Cn1nc(C(F)F)c(C(=O)NCC(c2cccs2)C(F)(F)F)c1F (stereo not drawn) [Example 161]
(A) 2.75

(Q) So what's the measured logP for this one? CC(CNC(=O)c1c(C(F)F)nn(C)c1F)c1ccc(Cl)cc1Cl (stereo not drawn) [Example 84]
(A) 3.46

(Q) Suppose we examine the molecule Cn1nc(C(F)F)c(C(=O)NCCc2cc(Cl)ccc2Cl)c1Cl [Example 91] ; what logP value has been reported?
(A) 3.29

====

testMethodNotes: logP by HPLC on reversed-phase column (C 18), EEC Directive 79/831 Annex V.A8
Assay type: physicochemical
observedProperty: logP
No unit in the answer, only the number.

See these solved cases before continuing.
{"columns": ["molecule", "observedProperty", "val"],
 "data": [
  ["Cn1nc(C(F)F)c(C(=O)NC2CC2c2ccc(F)cc2)c1Cl (stereo not drawn) [Example 221]", "logP", 2.75],
  ["Cn1nc(C(F)F)c(C(=S)NCCc2ccc(Cl)cc2Cl)c1F [Example 71]", "logP", 3.99],
  ["Cn1nc(C(F)F)c(C(=O)NC(C)(C)Cc2ccc(Oc3ccccc3)cc2)c1F [Example 150]", "logP", 4.19],
  ["CN(CCc1ccccc1Cl)C(=O)c1c(C(F)F)nn(C)c1Cl [Example 36]", "logP", 2.92],
  ["Cc1c(CCNC(=O)c2c(C(F)F)nn(C)c2F)sc2ccccc12 [Example 171]", "logP", 3.27],
  ["CN(CCc1ccccc1C(F)(F)F)C(=O)c1c(C(F)F)nn(C)c1F [Example 123]", "logP", 3.00]
]}

(Q) Sample Cn1nc(C(F)F)c(C(=O)NCCc2ccc(Cl)cc2Cl)c1Cl [Example 66] — what was its logP?
(A) 3.31

(Q) Using the record for Cn1nc(C(F)F)c(C(=O)N(C[Si](C)(C)c2ccc3ccccc3c2)C2CC2)c1Cl [Example 246] , report its logP.
(A) 4.51

(Q) If you can, please state the reported logP value of COC(c1ccc(Cl)cc1Cl)C1(NC(=O)c2c(C(F)F)nn(C)c2Cl)CC1 (stereo not drawn) [Example 78] .
(A) 3.70
